Each entry below carries its reported ratio to parent.
B1: H2-Kb / Ed16-30 (parent complex)
chain 1: GEQVEQRPPHLSVREGDSAVIICTYTDPNSYYFFWYKQEPGAGLQLLMKVFSSTEINEGQGFTVLLNKKDKQLSLNLTAAHPGDSAVYFCAVSEPSSGQKLVFGQGTILKVYL
chain 2: EAAVTQSPRNKVAVTGGKVTLSCNQTNNHNNMYWYRQDTGHGLRLIHYSYGAGSTEKGDIPDGYKASRPSQENFSLILELATPSQTSVYFCAGRDTGQLYFGEGSKLTVL
chain 3: not shown
chain 4: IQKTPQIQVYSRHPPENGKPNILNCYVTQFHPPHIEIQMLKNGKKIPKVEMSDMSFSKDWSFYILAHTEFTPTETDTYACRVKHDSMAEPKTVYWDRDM
chain 5: SIINFEKL

- Variants of: B1
- protocol: % of reporter cells activated (NFAT-GFP), raw; further: test concentration or dose not given here

# mutationString, ratio to parent
measured = [
    ("chain 5 K7D", 0.162),
    ("chain 5 L8S", 1.04),
    ("chain 5 S1A", 0.631),
    ("chain 5 K7H", 0.478),
    ("chain 5 N4L", 0.507),
    ("chain 5 K7A", 0.499),
    ("chain 5 I3M", 0.425),
    ("chain 5 L8T", 1.09),
    ("chain 5 I3S", 0.393),
    ("chain 5 I3R", 0.104),
    ("chain 5 S1M", 0.632),
    ("chain 5 S1T", 0.386),
    ("chain 5 E6P", 0.508),
    ("chain 5 I3K", 0.779),
    ("chain 5 I2P", 1.06),
    ("chain 5 I3V", 1.11),
    ("chain 5 E6G", 0.543),
    ("chain 5 I2Q", 0.726),
    ("chain 5 L8C", 0.731),
    ("chain 5 L8W", 0.929),
    ("chain 5 I3W", 0.537),
    ("chain 5 I3E", 0.45),
]

Where do these numbers come from? They come from paper PMC11480844.
